system: M19-MEL melanoma; test: NCI tumour cell line growth inhibition, 48 h
VALUE KIND: TGI

Prompt line: Please give the measured TGI for this molecule: CCC1(OC(C)=O)C(=O)OCc2c1cc1n(c2=O)Cc2cc3ccccc3nc2-1 (stereo not given)
Response line: > 100 µM

Prompt line: Another molecule to look at: "C/C(=N\Nc1ccc([N+](=O)[O-])cc1)C(=O)N(C)Nc1ccccc1"
Response line: > 100 µM

Prompt line: Another molecule to look at: O=[N+]([O-])c1ccc(Cl)c(C2SCc3nc4ccccc4n32)c1 (stereo not given)
Response line: > 100 µM

Prompt line: Another molecule to look at: Nc1ccn(C2OC(COP(=O)(O)Oc3ccccc3)C(O)C2O)c(=O)n1 (stereo not given)
Response line: > 100 µM

Prompt line: Another molecule to look at: "CCN(CC)CCCNC(=O)Cc1ccccc1Nc1c(Cl)cccc1Cl"
Response line: 17.4 µM

###

system: SF-295 CNS; experiment: NCI tumour cell line growth inhibition, 48 h
Exercise: for every item that follows, state its recorded TGI.
Dear colleague, please return just the value in µM, with no unit written.

Prompt line: Please give the measured TGI for this molecule: "CCSC1=CC(=O)c2ccccc2C1=O"
Response line: 30.7

Prompt line: Another molecule to look at: "c1ccc(-c2nc(N3CCNCC3)c3nc(-c4ccccc4)oc3n2)cc1"
Response line: 3.38

Prompt line: Another molecule to look at: "CCNCCNc1cc(-c2ccc(F)cc2)c(C#N)c2nc3ccccc3n12"
Response line: 3.79

Prompt line: Another molecule to look at: CC1=C2C(c3ccccc3)(c3ccccc3)C3C=CC2(C=N3)N(C(=O)NC2CCCCC2)C1=O (stereo not given)
Response line: 31.2

Prompt line: Another molecule to look at: CN(Cc1cnc2nc(N)nc(N)c2n1)c1ccc(C(=O)NC(CCC(=O)O)C(=O)O)cc1 (stereo not given)
Response line: 36.5

Prompt line: Another molecule to look at: "Cn1c(O)c(C(=O)Nc2ccc([N+](=O)[O-])cc2)c(=O)n(C)c1=S"
Response line: 4.86

Prompt line: Another molecule to look at: C=C(Cl)C(Cl)(CBr)CCC(Cl)C(C)(C)Cl (stereo not given)
Response line: 7.73

Prompt line: Another molecule to look at: "O=C(CCN1CCCC1)Nc1ccc2c(NCCCc3ccccc3)c3ccccc3nc2c1"
Response line: 2.59

###

system: MDA-MB-231 breast; experiment: NCI tumour cell line growth inhibition, 48 h
VALUE KIND: TGI (µM)
Dear colleague, please return just the value in µM, with no unit written.

Prompt line: Please give the measured TGI for this compound: CC(C)[Si](OC1=CCCCCC12C(=O)N(C)c1ccccc12)(C(C)C)C(C)C (centres undefined)
Response line: 54.8

Prompt line: Another compound to look at: "CO[C@H]1O[C@@H]2CO[C@@H](c3ccccc3)O[C@H]2C[C@]12CCC/C=C\CO2"
Response line: 39.3

Prompt line: Another compound to look at: "O=[As](O)(O)c1ccc(Cc2ccc([As](=O)(O)O)cc2)cc1"
Response line: 2.3

Prompt line: Another compound to look at: "c1ccc(-c2nc(N3CCNCC3)c3nc(-c4ccccc4)oc3n2)cc1"
Response line: 3.2

Prompt line: Another compound to look at: "O=C(/C=C/c1cccc(Cl)c1)c1ccc(Cl)cc1Cl"
Response line: 34.7

Prompt line: Another compound to look at: COC(=O)C1(Cc2cccc(Cl)c2)CCCCCCN1C(=O)c1ccccc1 (centres undefined)
Response line: 29

Prompt line: Another compound to look at: C[Se]C(=O)CC1=C2C=C(F)C=CC2/C(=C\c2ccc(S(C)=O)cc2)C1C (centres undefined)
Response line: 0.327

Prompt line: Another compound to look at: "CC(C)(C)CC(C)(C)c1ccc(OCCOCCSC(=N)N)cc1"
Response line: 2.94

Prompt line: Another compound to look at: "C[C@@H]1CC[C@@]2(OC1)O[C@H]1C[C@H]3[C@@H]4CC=C5C[C@@H](O[C@@H]6O[C@H](CO)[C@@H](O[C@@H]7O[C@@H](CO)[C@H](O)[C@H]7O)[C@H](O)[C@H]6O[C@@H]6O[C@@H](C)[C@H](O)[C@@H](O)[C@H]6O)CC[C@]5(C)[C@H]4CC[C@]3(C)[C@H]1[C@@H]2C"
Response line: 1.77

Prompt line: Another compound to look at: O=C(C1OC1c1ccc([N+](=O)[O-])cc1)C12CC3CC(CC(C3)C1)C2 (centres undefined)
Response line: 34.8

###

test system: OVCAR-4 ovarian; experiment: NCI tumour cell line growth inhibition, 48 h; in the data active means GI50 below about 0.43 µM; inactive means the rest
One label from this list, please: active, inactive

Prompt line: Call for entry "COc1ccc(-c2ccc(-c3ccc(C(=N)N)cn3)s2)cc1Cl" :
Response line: inactive

Prompt line: Another compound to look at: "COc1ccc(/C=C2\N=C3SC=C(N)N3C2=O)cc1"
Response line: inactive

Prompt line: Another compound to look at: C[C@H]1[C@@H](OCC(CO[C@H]2O[C@@H]3O[C@@]4(C)CC[C@H]5[C@H](C)CC[C@@H]([C@H]2C)[C@@]35OO4)=NOCC(=O)O)OC2O[C@@]3(C)CC[C@H]4[C@H](C)CC[C@@H]1[C@@]24OO3 (stereo not given in full)
Response line: active

Prompt line: Another compound to look at: "CCNCCNc1cc(-c2ccc(F)cc2)c(C#N)c2nc3ccccc3n12"
Response line: inactive

Prompt line: Another compound to look at: "COC(=O)CCC1=C(C)c2cc3[n-]c(cc4nc(cc5[n-]c(cc1n2)c(CCC(=O)OC)c5C)C=C4C)cc3C.[Cd+2]"
Response line: inactive

Prompt line: Another compound to look at: "CC/C=C\CCC/C=C1/C(=O)C=C[C@@H]1C/C=C\CCCC(=O)O"
Response line: inactive

Prompt line: Another compound to look at: CN(Cc1cnc2nc(N)nc(N)c2n1)c1ccc(C(=O)NC(CCC(=O)O)C(=O)O)cc1 (stereo not given)
Response line: inactive

Prompt line: Another compound to look at: "O=C(CCN1CCCC1)Nc1ccc2c(NCCCc3ccccc3)c3ccccc3nc2c1"
Response line: inactive

Prompt line: Another compound to look at: "N#Cc1nc(-c2ccccc2)oc1S(=O)(=O)N1CCOCC1"
Response line: inactive

Prompt line: Another compound to look at: "O=Nc1c(O)ccc2ccccc12"
Response line: inactive

Prompt line: Another compound to look at: "CCCC[C@@H](COC(=O)N(Cc1cccs1)Cc1cccs1)NC(=O)N[C@@H](CC(=O)OC)c1ccc2c(c1)OCO2"
Response line: inactive

Prompt line: Another compound to look at: "COc1ccc(/C=C\c2cc(OC)c(OC)c(OC)c2)c(NS(=O)(=O)c2ccc(C)cc2)c1O"
Response line: active

Prompt line: Another compound to look at: "O=C1/C(=C/c2cccs2)CCC/C1=C\c1cccs1"
Response line: inactive

Prompt line: Another compound to look at: "COc1ccc(NC(=O)c2cc(OC)c(OC)c(OC)c2)cc1O"
Response line: inactive

Prompt line: Another compound to look at: "CC(=O)Oc1c(OC(C)=O)c(-c2ccc(O)c(O)c2)c(O)c(O)c1-c1ccc(O)cc1"
Response line: inactive

###

tested on: NCI-H226 lung; assay: NCI tumour cell line growth inhibition, 48 h
Exercise: for every item that follows, state its recorded TGI.
Dear colleague, please return just the value in µM, with no unit written.

Prompt line: Please give the measured TGI for this compound: COc1ccc(C(Nc2ncccn2)c2cc3c(cc2O)OCO3)cc1 (centres undefined)
Response line: 44.6

Prompt line: Another compound to look at: "CO[C@H]1O[C@@H]2CO[C@@H](c3ccccc3)O[C@H]2C[C@]12CCC/C=C\CO2"
Response line: 50.9

Prompt line: Another compound to look at: C[C@H]1[C@@H](OCC(CO[C@H]2O[C@@H]3O[C@@]4(C)CC[C@H]5[C@H](C)CC[C@@H]([C@H]2C)[C@@]35OO4)=NOCC(=O)O)OC2O[C@@]3(C)CC[C@H]4[C@H](C)CC[C@@H]1[C@@]24OO3 (some centres undefined)
Response line: 20.1

###

system: SF-268 CNS; test: NCI tumour cell line growth inhibition, 48 h
VALUE KIND: TGI (µM)
Dear colleague, please return just the value in µM, with no unit written.

Prompt line: Please give the measured TGI for this molecule: CC(Cc1ccc(O)c(O)c1)C(C)Cc1ccc(O)c(O)c1 (stereo not given)
Response line: 41.6

Prompt line: Another molecule to look at: "COC(=O)CCC1=C(C)c2cc3[n-]c(cc4nc(cc5[n-]c(cc1n2)c(CCC(=O)OC)c5C)C=C4C)cc3C.[Cd+2]"
Response line: 14.9

###

Exercise: for every item that follows, state its recorded TGI.
system: K-562 leukemia; assay: NCI tumour cell line growth inhibition, 48 h
Dear colleague, please return just the value in µM, with no unit written.

Prompt line: Please give the measured TGI for this molecule: "C[C@@H]1CC[C@@]2(OC1)O[C@H]1C[C@H]3[C@@H]4CC=C5C[C@@H](O[C@@H]6O[C@H](CO)[C@@H](O[C@@H]7O[C@@H](CO)[C@H](O)[C@H]7O)[C@H](O)[C@H]6O[C@@H]6O[C@@H](C)[C@H](O)[C@@H](O)[C@H]6O)CC[C@]5(C)[C@H]4CC[C@]3(C)[C@H]1[C@@H]2C"
Response line: 2.64

Prompt line: Another molecule to look at: "O=C(/C=C\c1ccnc2ccccc12)c1ccc([N+](=O)[O-])cc1"
Response line: 18
